assay: Test of brain penetration (Reference Example 1, intravenous); format: in vivo; details: rat, Jcl-SD male rats, non-fasting, 0.5 mg/kg intravenously, brain and plasma 15 minutes after administration, n=2
Test readout: Kp at 0.25 h

>  <Compound>
Oc1ccc2c3c1O[C@H]1c4[nH]c5ccccc5c4C[C@@]4(O)[C@@H](C2)N(CC2CC2)CC[C@]314 [NIT, naltrindole]

>  <Test readout>
Kp at 0.25 h

>  <Reported measurement>
1.3

$$$$
